# measured.target: Drosophila OR47a (Drosophila melanogaster, UniProt P81921)
# Construct: expressed in transfected cells
# protocol: Calcium ion fluorescence (GCaMP6) assay, OR47a stable HEK293 cell line
# Assay type: cell-based
# condition.label: ligand concentration 100 (unit not given); threshold 0.05, below shown as 0

compound	measured.target	DF norm AVERAGE OR47a
CCOC(=O)CC [ethyl propionate]	Drosophila OR47a (Drosophila melanogaster, UniProt P81921)	0
Cc1ccc(C(C)C)cc1	Drosophila OR47a (Drosophila melanogaster, UniProt P81921)	0
Cc1ccc(C)cc1	Drosophila OR47a (Drosophila melanogaster, UniProt P81921)	0
C=C1CCC2(C(C)C)CC12 (stereo not shown)	Drosophila OR47a (Drosophila melanogaster, UniProt P81921)	0
CCc1ccccc1	Drosophila OR47a (Drosophila melanogaster, UniProt P81921)	0
CCCCCC(=O)OCC [ethyl hexanoate]	Drosophila OR47a (Drosophila melanogaster, UniProt P81921)	0.6687
CC(=O)OCC(C)C [isobutyl acetate]	Drosophila OR47a (Drosophila melanogaster, UniProt P81921)	0.646
CCCCCCCCCC=O	Drosophila OR47a (Drosophila melanogaster, UniProt P81921)	0
CC/C=C/CCO	Drosophila OR47a (Drosophila melanogaster, UniProt P81921)	0.1396
COC(=O)c1ccccc1 [methyl benzoate]	Drosophila OR47a (Drosophila melanogaster, UniProt P81921)	0.05948
CCCC(=O)OCC [ethyl butyrate]	Drosophila OR47a (Drosophila melanogaster, UniProt P81921)	0
CCOC(=O)c1ccccc1 [ethyl benzoate]	Drosophila OR47a (Drosophila melanogaster, UniProt P81921)	0.09883
C=C1CCC2CC1C2(C)C (stereo not shown)	Drosophila OR47a (Drosophila melanogaster, UniProt P81921)	0
COC(=O)c1ccccc1O [methyl salicylate]	Drosophila OR47a (Drosophila melanogaster, UniProt P81921)	0.1364
CCCOC(C)=O [propyl acetate]	Drosophila OR47a (Drosophila melanogaster, UniProt P81921)	0.3345
CC(C)=CCC/C(C)=C/CC/C(C)=C/CO	Drosophila OR47a (Drosophila melanogaster, UniProt P81921)	0

----------
Below, each entry is listed alongside its reported DF norm AVERAGE OR85b.
# measured.target: Drosophila OR85b (Drosophila melanogaster)
# Construct: expressed in transfected cells
# protocol: Calcium ion fluorescence (GCaMP6) assay, OR85b stable HEK293 cell line
# Type: cell-based
# condition.label: ligand concentration 10 (unit not given); 0.05 threshold, values below shown as 0

compound	DF norm AVERAGE OR85b
CC/C=C\CCO [Z3-hexenol]	0
CCCCCCCCCCCCCC [tetradecane]	0.08442
Cc1ccccc1 [toluene]	0.067
C=Cc1ccccc1 [styrene]	0
CC1=CCC23CC1C(C)(C)C2CCC3C (stereo not drawn) [α-funebrene]	0
CC/C=C\CCOC(C)=O [z3-hexenyl acetate]	0
CCCCCCCCCCC [undecane]	0.05165

----------
# measured.target: Drosophila OR47a (Drosophila melanogaster, UniProt P81921)
# Construct: expressed in transfected cells
# Sequence (P81921 1-385): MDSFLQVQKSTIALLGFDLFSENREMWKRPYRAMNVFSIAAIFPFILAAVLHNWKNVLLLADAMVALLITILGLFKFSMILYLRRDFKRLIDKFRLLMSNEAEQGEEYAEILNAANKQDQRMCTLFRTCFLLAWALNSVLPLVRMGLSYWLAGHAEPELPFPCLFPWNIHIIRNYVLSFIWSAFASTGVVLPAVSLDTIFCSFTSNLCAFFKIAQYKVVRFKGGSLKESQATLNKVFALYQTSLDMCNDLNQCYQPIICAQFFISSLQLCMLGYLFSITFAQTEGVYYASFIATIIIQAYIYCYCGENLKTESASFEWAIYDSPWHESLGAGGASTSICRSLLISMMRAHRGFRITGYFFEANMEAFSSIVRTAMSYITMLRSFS
# Sequence (Q9VNB5 1-486 partner): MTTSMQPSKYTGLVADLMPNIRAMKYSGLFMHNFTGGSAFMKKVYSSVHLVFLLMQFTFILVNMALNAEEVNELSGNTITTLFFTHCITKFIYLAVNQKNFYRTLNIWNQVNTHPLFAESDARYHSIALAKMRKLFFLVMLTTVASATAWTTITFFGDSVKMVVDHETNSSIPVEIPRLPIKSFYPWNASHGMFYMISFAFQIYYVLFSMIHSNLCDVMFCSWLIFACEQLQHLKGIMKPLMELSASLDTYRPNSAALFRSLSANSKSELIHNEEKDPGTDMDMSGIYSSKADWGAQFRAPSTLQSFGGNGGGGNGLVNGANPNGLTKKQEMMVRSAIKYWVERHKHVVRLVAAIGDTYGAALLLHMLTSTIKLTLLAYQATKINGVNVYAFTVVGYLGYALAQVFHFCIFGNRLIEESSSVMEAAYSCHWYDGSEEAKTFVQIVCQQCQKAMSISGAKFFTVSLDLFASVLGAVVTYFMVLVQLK
# protocol: Calcium ion fluorescence (GCaMP6) assay, OR47a stable HEK293 cell line
# Assay type: cell-based
# condition.label: concentration 100; normalized fluorescence change, values below 0.05 threshold given as 0
# DF norm AVERAGE OR47a listing for each entry below

compound	DF norm AVERAGE OR47a
CC1=CCC2C(C1)C2(C)C (centres unmarked)	0
Cc1cccc(O)c1	0
CCCCCCCCC(CO)CCCCCC (centres unmarked)	0
C=CC(O)CCCCC (centres unmarked)	0.1389
CCCCCC(O)CC (centres unmarked)	0.08889
C=C(C)C1CCC2(C)OC2C1 (single isomer, unassigned; (+)) [(+)-limonene oxide]	0
C=C1CC[C@H]2O[C@]2(C)CC[C@@H]2[C@@H]1CC2(C)C [(-)-caryophyllene oxide]	0
CCCCC(C)=O	0.1643
CCCCCC(C)=O	0.4589
CC1=CCC[C@@]2(C)[C@@H]3CC[C@]12CC3(C)C [(−)-α-neoclovene]	0
C=C(C)[C@H]1CC=C(C)CC1 [(R)-(+)-limonene]	0

----------
# measured.target: Drosophila OR85b (Drosophila melanogaster)
# Construct: expressed in transfected cells
# Sequence (Q9VHQ7 1-390): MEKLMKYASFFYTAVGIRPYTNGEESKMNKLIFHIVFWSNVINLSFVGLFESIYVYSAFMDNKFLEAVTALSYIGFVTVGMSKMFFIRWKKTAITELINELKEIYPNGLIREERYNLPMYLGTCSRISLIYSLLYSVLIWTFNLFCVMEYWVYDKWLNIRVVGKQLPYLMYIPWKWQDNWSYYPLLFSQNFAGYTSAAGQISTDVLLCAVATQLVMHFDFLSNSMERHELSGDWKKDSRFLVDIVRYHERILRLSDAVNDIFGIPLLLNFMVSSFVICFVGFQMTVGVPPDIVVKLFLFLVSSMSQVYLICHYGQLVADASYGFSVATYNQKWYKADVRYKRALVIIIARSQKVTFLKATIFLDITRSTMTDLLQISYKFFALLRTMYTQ
# Sequence (Q9VNB5 1-486 partner): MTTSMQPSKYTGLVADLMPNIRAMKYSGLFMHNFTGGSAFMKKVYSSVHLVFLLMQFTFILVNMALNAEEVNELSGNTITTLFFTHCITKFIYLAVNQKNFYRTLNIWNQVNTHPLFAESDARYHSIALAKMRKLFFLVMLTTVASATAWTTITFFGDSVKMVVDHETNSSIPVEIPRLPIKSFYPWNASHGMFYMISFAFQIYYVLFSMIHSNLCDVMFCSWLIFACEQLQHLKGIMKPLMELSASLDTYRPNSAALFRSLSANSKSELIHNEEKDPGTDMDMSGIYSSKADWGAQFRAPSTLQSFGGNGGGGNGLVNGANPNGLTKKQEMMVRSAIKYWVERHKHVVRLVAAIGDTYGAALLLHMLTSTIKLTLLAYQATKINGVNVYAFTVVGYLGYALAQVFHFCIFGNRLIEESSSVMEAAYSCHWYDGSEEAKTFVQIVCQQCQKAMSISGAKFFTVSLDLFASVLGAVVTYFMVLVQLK
# protocol: Calcium ion fluorescence (GCaMP6) assay, OR85b stable HEK293 cell line
# Assay type: cell-based
# condition.label: concentration 100; normalized fluorescence change, values below 0.05 threshold given as 0
value.kind: DF norm AVERAGE OR85b

compound	readout.value
C=C1[C@H]2CC[C@@H]3[C@H]2C(C)(C)CCC[C@]13C [(+)-longifolene]	0
CCCCCC(C)=O	0.5508
C=C1CC[C@H]2O[C@]2(C)CC[C@@H]2[C@@H]1CC2(C)C [(-)-caryophyllene oxide]	0
CC1=CCC[C@@]2(C)[C@@H]3CC[C@]12CC3(C)C [(−)-α-neoclovene]	0
CCCCC(C)O (centres unmarked)	0
CC1=CCC2C(C1)C2(C)C (centres unmarked)	0
C=CC(O)CCCCC (centres unmarked)	0.08325
CCCC(O)CC (centres unmarked)	0
Cc1ccc(O)cc1	0
CCCCCCCCC(CO)CCCCCC (centres unmarked)	0.07977
COc1cccc(OC)c1	0
